Test system: MS2 coat protein
Assay: apparent Kd, MS2 coat protein; higher = weaker binding; RNA-MaP array; tryptophan 2.4 mM where present
Details: designed as: ON switch for tryptophan; no ligand
READOUT_TYPE: apparent Kd (nM)
Lab book: enter the figure in nM, no units written.

Quick one: give measured apparent Kd for GGGACAUGAGGAUCACCCAUGUACCGGUCCCGAGGACCGGUACGGCCGCCACUCGAUGACCUCAUAGUCUGCCUGAGCAGCAGAC
41.3

Quick one: give measured apparent Kd for AAAAUAAAAUAAAAGGUGGAAAUAAGGCGGCGAGGACCGGUACGGCCGCCACUCGCGUACAUGAGGAUCACCCAUGUCUGAAAAU
22.4

Quick one: give measured apparent Kd for AACAUGAGGAUCACCCAUGUACCUUUCGAUCGAGGACCGGUACGGCCGCCACUCGAAAACAUGAGGAUCACCCAUGUUCAACAGG
145

Quick one: give measured apparent Kd for AGCAACAAGUCGGCCGCCACUCAUUUAACAUGAGGAUCACCCAUGUGAAUAACAUGAUUGUAAUAGAGGACCGGGACAGUUGCAU
62.5

Quick one: give measured apparent Kd for UGUCAGCGAAAGUUGACAUGUUGAACCGGUCGAGGACCGGUACGGCCGCCACUCGAUCUCUCGUACAUGAGGAUCACCCAUGUCG
11.5

Quick one: give measured apparent Kd for UAAACUACACAUGAGGAUCACCCAUGUGGCCGAGGACCGGUACGGCCGCCACUCGUGUGUUAAUAAAAGAACUGCAAGGUUCUUC
174

Quick one: give measured apparent Kd for AACAUGAGGAUCACCCAUGUCCCAUGUGAACGAGGACCGGUACGGCCGCCACUCGAAUGAGGCGGCACAUGAGGAUCACCCACAU
131

---

System: MS2 coat protein
Assay: apparent Kd, MS2 coat protein; higher = weaker binding; RNA-MaP array; FMN 200 µM where present
Details: designed as: OFF switch for flavin mononucleotide; no ligand
READOUT_TYPE: apparent Kd (nM)
Lab book: enter the figure in nM, no units written.

Quick one: give measured apparent Kd for AAGAAGUGAGGAUAUGUCUGUGCGAAAAAAAAAAAGUGCAGACAGAAGGCACAUGAGGAUCACCCAUGUCAAAA
25.6

Quick one: give measured apparent Kd for GGAAGACAAAGUCUUCCUAUUCGAACAUGAGGAUCACCCAUGUAGGAUAUGCUACUCAAAGAGUAGCAGAAGGACAUGUGCUUU
34.8

Quick one: give measured apparent Kd for CUAGAGGAUUAAGGAUAUGCAGAGAGAUCAUGCGCGUCGCGCACAUGAGGAUCACCCAUGUAAGAGCAGAAGGUAACUAUGAUC
18.3

Quick one: give measured apparent Kd for CUCGUCUGGAAACGGAGCGGCCAACAUGAGGAUCACCCAUGUGAGGAUAUGCCUACUAAAAGUAGGCAGAAGGCGCACUUGGCA
23.6

Quick one: give measured apparent Kd for CGAUAGGACAGAGGAUAUACACAUGAGGAUCACCCAUGUGAUUUCAGCGCGAAAGCGCCAAACAUGUAGAAGGCUGUCCUAUCG
25.9

Quick one: give measured apparent Kd for CCGAAUAUGCAGGAUAUCGUAUCGGAGACGAUACGAGAAGGGCAAACAUGAGGAUCACCCAUGUUCCUUAACGG
19.1

Quick one: give measured apparent Kd for GGUUGUCAAAGACAACCAUAACGAACAUGAGGAUCACCCAUGUAGGAUAUGCUUCUCAAAGAGAAGCAGAAGGACAUGUGUCUU
31.8

Quick one: give measured apparent Kd for GCUAGUAUUGCAGGAUAUUGAGAAUAAUUUUGGCAAGAAGGGCAUAACAUGAGGAUCACCCAUGUAUUCCUUAGUGAUACUAGC
6.58

Quick one: give measured apparent Kd for UAGUAUAAGGGCAUUAAACAUGAGGAUCACCCAUGUACAAUAGAGGAUAUGCAUUUCAGUUUAGAGUAGAAGGUUAGAGAAUAU
35.6

Quick one: give measured apparent Kd for UGAUCGAGAGAUCUUAGAUUCUGGUAGGAUAUACAUUAUGUAAAAUUUACAUGAGGAUCACCCAUGUAGAAGGACUAGAGUCUA
6.19

Quick one: give measured apparent Kd for GAGGAGCAAGGAUAUACGAGGAUAUGGUAGGUUGGAGAGUGACAUGAGGAUCACCCAUGUAGAAGGUGCGAGGG
66.7

Quick one: give measured apparent Kd for GUCGAAACCAUACUGGUCGACGGUCAGGAUAUACAUGAGGAUCACCCAUGUGCUAUUGAUACUAUGUAGAAGGGACCCACCGCA
15.2

Quick one: give measured apparent Kd for AAACAGCGAGAUAAUAAUGAUUACAUGAGGAUCACCCAUGUAUAGGAUAUCGUCAGGAAUACUGACGAGAAGGAUACAACGCUG
16

Quick one: give measured apparent Kd for CAGGAUAGAGGAUAUACAUAGAUACAGAUUCGUGUGAUCCUACAUGAGGAUCACCCAUGUAGAAGGCUAUCCUG
213

Quick one: give measured apparent Kd for GUACCUCAAGUGAGGAUAUGUCAUUACCGGUGAAGAUAGAAGGCACAUGAGGAUCACCCAUGUGUGGCUCCGUC
23.5
